- System Under Test: human ether-à-go-go-related gene (hERG) potassium channel (human)
- Procedure Text: primary screen, population patch clamp on CHO cells stably expressing hERG; higher = less effect of the substance
The campaign covered roughly 310,000 compounds. About 14,000 (4.5%) showed an effect of 50% or more. The effect is printed as a negative number. The sample holds strong results, similar compounds and a random draw of the others, so the mix is not that of the screen.
Recorded Endpoint: hERG current change (%, negative = inhibition) at 10uM (%)

* CC(NC(=O)C1CCN(C(=O)[C@@H]2Cc3ccccc3CN2C(=O)OC(C)(C)C)CC1)c1ccccc1 (some centres unmarked) | 14
* CC(=O)c1cccc(NC(=O)COC(=O)CCc2ccc(S(=O)(=O)N3CCOCC3)cc2)c1 | 6.05
* COc1ccc2nc3oc(C(=O)N4CCC5(CC4)OCCO5)cc3cc2c1 | -16.5
* O=C(CCc1ccccc1)Nc1ccc(S(=O)(=O)N2CCOCC2)cc1 | -28.1
* O=C(COC(=O)CCc1ccc(S(=O)(=O)N2CCOCC2)cc1)Nc1cccc(Cl)c1 | -30.3

* * *

- System Under Test: human ether-à-go-go-related gene (hERG) potassium channel (human, UniProt Q12809)
- Sequence (Q12809 whole entry, looked up): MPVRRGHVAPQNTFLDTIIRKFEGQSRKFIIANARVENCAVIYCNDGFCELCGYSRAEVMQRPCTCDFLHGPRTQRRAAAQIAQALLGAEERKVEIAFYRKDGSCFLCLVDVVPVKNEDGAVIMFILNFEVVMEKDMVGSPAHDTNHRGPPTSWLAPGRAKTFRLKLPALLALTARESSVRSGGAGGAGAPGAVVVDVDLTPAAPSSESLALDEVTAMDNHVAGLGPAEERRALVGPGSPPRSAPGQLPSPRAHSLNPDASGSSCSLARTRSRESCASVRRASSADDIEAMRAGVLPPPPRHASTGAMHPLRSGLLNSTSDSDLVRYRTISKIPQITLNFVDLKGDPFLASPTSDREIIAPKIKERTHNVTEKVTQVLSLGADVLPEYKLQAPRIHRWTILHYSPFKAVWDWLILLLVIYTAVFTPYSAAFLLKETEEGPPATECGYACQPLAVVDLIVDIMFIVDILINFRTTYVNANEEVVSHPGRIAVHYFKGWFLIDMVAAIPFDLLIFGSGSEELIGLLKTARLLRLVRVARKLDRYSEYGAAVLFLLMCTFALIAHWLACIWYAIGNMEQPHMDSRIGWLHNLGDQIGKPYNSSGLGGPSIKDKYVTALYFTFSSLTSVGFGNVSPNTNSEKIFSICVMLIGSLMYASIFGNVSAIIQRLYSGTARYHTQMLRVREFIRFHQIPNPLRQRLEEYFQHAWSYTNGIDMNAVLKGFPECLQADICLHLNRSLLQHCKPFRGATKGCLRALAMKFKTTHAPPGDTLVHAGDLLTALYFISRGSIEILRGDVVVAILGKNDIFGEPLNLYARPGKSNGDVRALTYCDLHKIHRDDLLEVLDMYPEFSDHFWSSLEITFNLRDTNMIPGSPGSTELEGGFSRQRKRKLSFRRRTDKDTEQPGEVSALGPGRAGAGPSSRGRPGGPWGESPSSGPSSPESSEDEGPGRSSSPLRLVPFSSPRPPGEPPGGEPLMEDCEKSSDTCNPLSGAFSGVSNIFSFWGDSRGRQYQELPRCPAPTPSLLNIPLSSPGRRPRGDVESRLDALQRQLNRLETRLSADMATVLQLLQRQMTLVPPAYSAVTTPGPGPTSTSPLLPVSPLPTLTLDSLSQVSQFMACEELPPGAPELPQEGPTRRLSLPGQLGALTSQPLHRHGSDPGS
- Procedure Text: primary screen, population patch clamp on CHO cells stably expressing hERG; higher = less effect of the substance
In all, about 310,000 compounds went through this assay and about 14,000 (4.5%) showed an effect of 50% or more. The effect is printed as a negative number. This excerpt belongs to a sample that is enriched for strong results.
Recorded Endpoint: hERG current change (%, negative = inhibition) at 10uM (%)

- CC1(C)N(OCc2ccccc2)C(=O)C(=O)N(OCc2ccccc2)C1(C)C: -6.11
- Cc1cc(C)c2nc(C(F)(F)F)nc(N3CCN(C(=O)c4ccco4)CC3)c2c1: 6.1
- C[C@H]1C=C(C(=O)NCc2ccccc2)O[C@@H](OCc2ccc(CO)cc2)C1: -10.5
- CCCC(=O)C1=C(O)C(C(=O)OC)C(C)(C)CC1=NC(C)C (stereo not drawn): 15.1
- COc1ccc(N(CC(=O)Nc2ccc(F)c(F)c2)S(=O)(=O)c2c(C)n[nH]c2C)cc1: 18.5
- Cc1cc(F)ccc1S(=O)(=O)Nc1ccccc1C(=O)Nc1ccccc1-c1nc2ccccc2[nH]1: 4.92
- O=S(=O)(c1ccccc1)c1nc(-c2ccc(F)cc2)oc1NCC1CCCO1 (stereo not drawn): -34.6
- Oc1c(C(c2cccs2)N2CCN(c3ccc(F)cc3)CC2)sc2ncnn12 (stereo not drawn): -66
- COCCNC(=O)C(=O)N/N=C(\C)CC(=O)Nc1cccnc1: 8.89

* * *

The compounds listed here are annotated with their hERG current change (%, negative = inhibition) at 10uM.
- System Under Test: human ether-à-go-go-related gene (hERG) potassium channel (human, UniProt Q12809)
- Procedure Text: primary screen, population patch clamp on CHO cells stably expressing hERG; higher = less effect of the substance
Screen size: about 310,000 compounds; about 14,000 (4.5%) showed an effect of 50% or more. Effects have a minus sign here. This is one part of a sample in which strong results are shown more often than they occur.
Recorded Endpoint: hERG current change (%, negative = inhibition) at 10uM (%)

• Cc1nn(C)cc1CN(C)C(=O)c1ccc(OC2CCN(Cc3ccccn3)CC2)cc1 = 8.65
• Cn1c(CN2CCCCC2)nc2cc([N+](=O)[O-])ccc21 = -0.791
• Cn1c(CCN2CCCCC2)nc2cc([N+](=O)[O-])ccc21 = -70.2
• Cc1ccc(C(CCNC(C)c2cccs2)c2ccco2)cc1 (centres unmarked) = -57.1
• O=C(COC(=O)C12CC3CC(CC(C3)C1)C2)Nc1ccc([N+](=O)[O-])cc1Br = 8.64
• O=S(=O)(NCCC(c1ccc(F)cc1)c1ccco1)c1ccccc1 (centres unmarked) = -7.77
• Cn1c(CN2CCCC2)nc2cc(NC(=O)COc3ccc([N+](=O)[O-])cc3)ccc21 = -38.6
• CCOc1ccc(Nc2cc(=O)oc3ccccc23)cc1 = 7.78

* * *

- System Under Test: human ether-à-go-go-related gene (hERG) potassium channel (human, UniProt Q12809);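 note: peak tail current of the secondary pulse compared with the same well before compound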
- Procedure Text: primary screen, population patch clamp on CHO cells stably expressing hERG; higher = less effect of the substance
The whole screen tested about 310,000 compounds, of which about 14,000 (4.5%) showed an effect of 50% or more. Effects have a minus sign here. The list comes from a sample in which strong results are over-represented; it also holds close analogues and randomly drawn compounds.
Recorded Endpoint: hERG current change (%, negative = inhibition) at 10uM (%)

• O=C(Cn1ncc2c1-c1ccccc1OC2)N1CCN(Cc2ccccc2)CC1 = -68.5
• COc1ccc(CCN2C(=O)C3C4CC(C5C(C(=O)N/N=C\c6ccc(Cl)cc6)=NOC45)C3C2=O)cc1OC (centres unmarked) = -67.7
• COc1ccc(C)cc1S(=O)(=O)N(CC(=O)O)c1ccc(C)cc1 = 5.39
• COc1ccc2c(C)nc(Nc3nc(-c4ccccc4)cc(=O)[nH]3)nc2c1 = 2.47
• CCOC(=O)N1CCN(C(=O)Cn2ncc3c2-c2ccccc2OC3)CC1 = -3.57
• Nc1ccc2oc3ccc(N)cc3c(=O)c2c1 = 13.8
• Cc1nc(SCC(=O)c2ccc(F)cc2)c([N+](=O)[O-])[nH]1 = 27.3
• COCCCN1C(=O)C(=O)/C(=C(/O)c2ccc3c(c2)OCCO3)C1c1ccc(C(=O)OC)cc1 (centres unmarked) = 1.43
• COC(=O)c1ccc(C2/C(=C(\O)c3ccc4c(c3)OCCO4)C(=O)C(=O)N2CCCN(C)C)cc1 (centres unmarked) = -55.9
• COc1ccc(-c2c(-c3cc(OC)cc(OC)c3)n(C)c3ccc(-c4ccc(S(N)(=O)=O)cc4)cc23)cc1 = 14.8
• CCN1CCN(C(=O)Cn2ncc3c2-c2ccccc2OC3)CC1 = -10.1

* * *

hERG current change (%, negative = inhibition) at 10uM listing for selected compounds.
- System Under Test: human ether-à-go-go-related gene (hERG) potassium channel (human, UniProt Q12809);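 note: peak tail current of the secondary pulse compared with the same well before compound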
- Procedure Text: primary screen, population patch clamp on CHO cells stably expressing hERG; higher = less effect of the substance
Among all 310,000 compounds or so, about 14,000 (4.5%) showed an effect of 50% or more. Effects have a minus sign here. The full list was thinned out, with strong results kept by preference.
Recorded Endpoint: hERG current change (%, negative = inhibition) at 10uM (%)

* COc1ccc(CCNC(=O)c2cc3c(=O)n4cccc(C)c4nc3n(CCCN3CCOCC3)c2=N)cc1 | -76.2
* Cc1cc(C(=O)NNC(=O)c2cccc([N+](=O)[O-])c2)n[nH]1 | 18.9
* Cc1cc(S(=O)(=O)NCC(c2ccc3c(c2)OCO3)N2CCOCC2)ccc1F (stereo not drawn) | -20.7
* Cc1ccc(S(=O)(=O)NCCNC(C)c2ccc(Br)cc2)cc1 (stereo not drawn) | -42.5
* CC(NC(=S)NC1CCCCC1)c1ccc(C(C)(C)C)cc1 (stereo not drawn) | 10.6
* Cc1cc(S(=O)(=O)NCC(c2ccc(F)cc2)N2CCN(C)CC2)ccc1F (stereo not drawn) | -68.4

* * *

- System Under Test: human ether-à-go-go-related gene (hERG) potassium channel (human);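 note: peak tail current of the secondary pulse compared with the same well before compound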
- Procedure Text: primary screen, population patch clamp on CHO cells stably expressing hERG; higher = less effect of the substance
Screen size: about 310,000 compounds; about 14,000 (4.5%) showed an effect of 50% or more. The effect is printed as a negative number. Only a selection was taken, and strong results are over-represented in it overall.
Listed here: items and their measured hERG current change (%, negative = inhibition) at 10uM.
Recorded Endpoint: hERG current change (%, negative = inhibition) at 10uM (%)

* CC(Sc1nnnn1-c1ccccc1)C(=O)Nc1ccc(Cl)cn1 (stereo not drawn) | -54.2
* CC(=O)Nc1ccc(NC(=O)C(C)Sc2n[nH]c(=O)n2Cc2ccccc2)cc1 (stereo not drawn) | 16
* Cn1nc(C(F)(F)F)c(-c2ccc(Br)cc2)c1NC(=O)Nc1ccc(F)cc1F | 13

* * *

- System Under Test: human ether-à-go-go-related gene (hERG) potassium channel (human, UniProt Q12809);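 note: peak tail current of the secondary pulse compared with the same well before compound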
- Procedure Text: primary screen, population patch clamp on CHO cells stably expressing hERG; higher = less effect of the substance
The campaign covered roughly 310,000 compounds. About 14,000 (4.5%) showed an effect of 50% or more. The effect is printed as a negative number. The entries come from a sample that favours strong results as a whole.
Mark yes for reported hERG current change (%, negative = inhibition) at 10uM of -30% or greater; mark no for anything smaller.

* COC(=O)c1ccc(CSc2ccc3nnc(-c4ccc(OC)c(OC)c4)n3n2)o1 | yes
* Cc1nc2cc(F)ccc2n1C1CCN(S(=O)(=O)c2ccccc2)CC1 | no
* CCCCC(=O)NC(c1ccco1)c1c(O)ccc2ccccc12 (centres unmarked) | yes
* CC(C)(C)c1ccc(-c2nnc(SCC(=O)c3ccc4c(c3)OCCO4)o2)cc1 | yes
* Clc1ccccc1-c1nn2c(-c3ccncc3)nnc2s1 | yes
* CC(C)CCNC(=O)CCc1nnc2n(CCCOC(C)C)c(=O)c3ccccc3n12 | yes
* CN(c1ccccc1)S(=O)(=O)c1cccc(NC(=O)c2ccc(=O)[nH]c2)c1 | yes
* CCCC(c1nnnn1Cc1ccc(F)cc1)N1CCN(CC)CC1 (centres unmarked) | no
* CC(C)C(c1nnnn1Cc1ccc(F)cc1)N1CCN(C2CCCC2)CC1 (centres unmarked) | no
* CC(C)Cn1c(=O)c2ccccc2n2c(CCC(=O)NC3CCN(Cc4ccccc4)CC3)nnc12 | no
* COc1ccc2c(c1)-c1c(ssc1=S)C(C)(C)N2S(=O)(=O)c1ccc(C)cc1 | yes
* CC(C)(CNc1ccc([N+](=O)[O-])cc1Cl)CNS(C)(=O)=O | yes
* CC(C(=O)NCc1ccc(Cl)cc1)n1cccc1C(=O)c1ccccc1 (centres unmarked) | yes
* CCC1=NN2C(=N)/C(=C\c3cccn3-c3ccc(C)cc3C)C(=O)N=C2S1 | yes
* Cc1cccc(NC(=O)CCC2CCN(C(=O)c3ccc(C)s3)CC2)c1 | no
* COc1ccc(-n2c(SCC(=O)Nc3nccs3)nc3c(c2=O)SC(C)C3)cc1 (centres unmarked) | yes
* CC(C)CCn1c(=O)c2ccccc2n2c(CCC(=O)NC3CCN(Cc4ccccc4)CC3)nnc12 | no
* COC(=O)c1ccc(CSc2ccc3nnc(-c4ccccn4)n3n2)o1 | no
* CCC(c1nnnn1Cc1ccc(F)cc1)N1CCN(C)CC1 (centres unmarked) | yes
* CCC1=NN2C(=N)/C(=C\c3cccn3-c3ccc(C)c(C)c3)C(=O)N=C2S1 | yes
* CC(=O)N1CCN(c2ccc(NC(=O)c3ccc([N+](=O)[O-])cc3Cl)cc2)CC1 | yes
* CC(C)C(c1nnnn1Cc1ccc(F)cc1)N1CCN(C2CCCCC2)CC1 (centres unmarked) | no
* CCN(CC)C(=N)/C(C#N)=N/Nc1ccc(C)cc1 | no
* COc1ccc(OCC(O)CN(CC(O)COc2ccc(OC)cc2)c2cccc(O)c2)cc1 (centres unmarked) | yes
* CCOc1ccc(-c2nnc3ccc(SCc4ccc(C(=O)OC)o4)nn23)cc1 | yes
* CCC1=NN2C(=N)/C(=C\c3cccn3-c3c(C)cccc3C)C(=O)N=C2S1 | no
* CCC(c1nnnn1Cc1ccc(F)cc1)N1CCN(C2CCCCC2)CC1.Cl (centres unmarked) | no
* CCOc1ccc(C(=O)N[C@H](C(=O)Nc2ccccc2OC)C(C)C)cc1 | yes
